- target: JAK2 (Homo sapiens, UniProt O60674)
- Construct: All four purified enzymes contain only the catalytic domain; His (N)
- Sequence (O60674 849-1124 limits assumed): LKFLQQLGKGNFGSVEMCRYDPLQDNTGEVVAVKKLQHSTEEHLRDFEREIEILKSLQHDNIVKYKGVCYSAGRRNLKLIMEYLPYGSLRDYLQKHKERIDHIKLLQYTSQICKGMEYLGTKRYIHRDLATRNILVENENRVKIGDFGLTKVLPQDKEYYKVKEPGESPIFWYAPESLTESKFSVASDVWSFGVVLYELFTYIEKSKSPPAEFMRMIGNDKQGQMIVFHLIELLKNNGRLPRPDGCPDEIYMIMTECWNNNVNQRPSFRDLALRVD
- method: JAK2 kinase assay (HTRF, inhibition of phosphorylation of a synthetic peptide)
- condition set: catalytic domain, His-tag; 4 μM ATP (Km); read-out: JAK2 kinase inhibitory activity (EC50)

compound structure: O=C(c1cncnc1)N1CCN(c2ncnc3[nH]ccc23)CC2(CC2)C1
target: JAK2 (Homo sapiens, UniProt O60674)
EC50: 100 to 1000 nM
--
compound structure: N#CCCN(CCC#N)C(=O)N1CCN(c2ncnc3[nH]ccc23)CC2(CC2)C1
target: JAK2 (Homo sapiens, UniProt O60674)
EC50: 100 to 1000 nM
--
compound structure: O=C(c1csnn1)N1CCCN(c2ncnc3[nH]ccc23)CC12CC2
target: JAK2 (Homo sapiens, UniProt O60674)
EC50: < 100 nM
--
compound structure: N#C[C@H]1CCCN1C(=O)N1CCN(c2ncnc3[nH]ccc23)CC2(CC2)C1
target: JAK2 (Homo sapiens, UniProt O60674)
EC50: < 100 nM
--
compound structure: O=C1CSC(=O)N1CC(=O)N1CCCN(c2ncnc3[nH]ccc23)CC12CC2
target: JAK2 (Homo sapiens, UniProt O60674)
EC50: 100 to 1000 nM
--
compound structure: N#Cc1ccc(OCC(=O)N2CCN(c3ncnc4[nH]ccc34)CC3(CC3)C2)cc1
target: JAK2 (Homo sapiens, UniProt O60674)
EC50: < 100 nM
--
compound structure: N#CCc1ccc(CC(=O)N2CCN(c3ncnc4[nH]ccc34)CC3(CC3)C2)cc1
target: JAK2 (Homo sapiens, UniProt O60674)
EC50: < 100 nM
--
compound structure: Cn1cc(CC(=O)N2CCN(c3ncnc4[nH]ccc34)CC3(CC3)C2)cn1
target: JAK2 (Homo sapiens, UniProt O60674)
EC50: 100 to 1000 nM

###

- target: JAK1 (Homo sapiens, UniProt P23458)
- Construct: JAK1 (aa 850-1154) and TYK2 (aa 871-1187) are expressed with an N-terminally fused GST-tag; GST (N)
- Sequence (P23458 850-1154): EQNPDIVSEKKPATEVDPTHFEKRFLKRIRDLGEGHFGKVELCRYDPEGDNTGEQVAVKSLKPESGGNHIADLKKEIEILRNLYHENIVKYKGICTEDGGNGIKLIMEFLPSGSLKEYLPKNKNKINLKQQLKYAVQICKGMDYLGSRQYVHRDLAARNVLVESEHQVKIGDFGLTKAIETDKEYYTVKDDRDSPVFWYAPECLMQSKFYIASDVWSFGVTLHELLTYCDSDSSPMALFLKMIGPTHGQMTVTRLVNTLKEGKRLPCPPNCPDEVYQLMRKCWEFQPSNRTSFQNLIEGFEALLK
- method: JAK1 kinase assay (HTRF, inhibition of phosphorylation of a synthetic peptide)
- condition set: catalytic domain aa 850-1154, GST-tag; 7 μM ATP (Km); read-out: JAK1 kinase inhibitory activity (EC50)
pEC50: −log10 of the molar value.

molecule: N#CCCN(CCC#N)C(=O)N1CCN(c2ncnc3[nH]ccc23)CC2(CC2)C1
pEC50: < 6.00

molecule: O=C(Cc1cscn1)N1CCN(c2ncnc3[nH]ccc23)CC2(CC2)C1
pEC50: 6.00 to 7.00

molecule: N#CCCC(=O)N1CCCN(c2ncnc3[nH]ccc23)CC12CC2
pEC50: 6.00 to 7.00

molecule: N#CCOc1ccc(CC(=O)N2CCN(c3ncnc4[nH]ccc34)CC3(CC3)C2)cc1
pEC50: > 7.00

molecule: N#Cc1c[nH]c(C(=O)N2CCN(c3ncnc4[nH]ccc34)CC3(CC3)C2)c1
pEC50: > 7.00

molecule: COc1ncccc1C(=O)N1CCN(c2ncnc3[nH]ccc23)CC2(CC2)C1
pEC50: < 6.00

molecule: CC1CN(c2ncnc3[nH]ccc23)CC2(CC2)CN1 (stereo not drawn)
pEC50: < 6.00

molecule: O=C(c1ccccn1)N1CCN(c2ncnc3[nH]ccc23)CC2(CC2)C1
pEC50: < 6.00

molecule: Cc1ccccc1C(=O)N1CCCN(c2ncnc3[nH]ccc23)CC12CC2
pEC50: 6.00 to 7.00

molecule: Cc1ncsc1CC(=O)N1CCN(c2ncnc3[nH]ccc23)CC2(CC2)C1
pEC50: 6.00 to 7.00

molecule: Cc1nc(CC(=O)N2CCN(c3ncnc4[nH]ccc34)CC3(CC3)C2)cs1
pEC50: 6.00 to 7.00

molecule: O=C1CCC(=O)N1CC(=O)N1CCCN(c2ncnc3[nH]ccc23)CC12CC2
pEC50: 6.00 to 7.00

molecule: NS(=O)(=O)c1ccc(CC(=O)N2CCN(c3ncnc4[nH]ccc34)CC3(CC3)C2)s1
pEC50: > 7.00

molecule: O=C(Cc1ccccc1Cl)N1CCCN(c2ncnc3[nH]ccc23)CC12CC2
pEC50: 6.00 to 7.00

molecule: Cc1cc(CC(=O)N2CCCN(c3ncnc4[nH]ccc34)CC23CC3)on1
pEC50: 6.00 to 7.00

molecule: CC1CN(c2ncnc3[nH]ccc23)CC2(CC2)CN1C(=O)CC1CCCC1 (stereo not drawn)
pEC50: 6.00 to 7.00

molecule: O=C(Cc1ccc(I)cc1)N1CCN(c2ncnc3[nH]ccc23)CC2(CC2)C1
pEC50: > 7.00

molecule: CN1CC(=O)N(CC(=O)N2CCN(c3ncnc4[nH]ccc34)CC3(CC3)C2)C1=O
pEC50: 6.00 to 7.00

###

- target: JAK1 (Homo sapiens, UniProt P23458)
- Construct: JAK1 (aa 850-1154) and TYK2 (aa 871-1187) are expressed with an N-terminally fused GST-tag; GST (N)
- method: JAK1 kinase assay (HTRF, inhibition of phosphorylation of a synthetic peptide)
- condition set: catalytic domain aa 850-1154, GST-tag; 7 μM ATP (Km); read-out: JAK1 kinase inhibitory activity (EC50)
Below, each entry is listed alongside its reported EC50.
measure: EC50

compound structure: Cc1n[nH]c(CC(=O)N2CCN(c3ncnc4[nH]ccc34)CC3(CC3)C2)n1
measure: EC50
measured: 0.1 to 1 µM
--
compound structure: O=C(c1ccccc1Cl)N1CCN(c2ncnc3[nH]ccc23)CC2(CC2)C1
measure: EC50
measured: 0.1 to 1 µM
--
compound structure: N#CCCNS(=O)(=O)c1ccc(C(=O)N2CCN(c3ncnc4[nH]ccc34)CC3(CC3)C2)cc1
measure: EC50
measured: 0.1 to 1 µM
--
compound structure: Cc1noc(C)c1C(=O)N1CCCN(c2ncnc3[nH]ccc23)CC12CC2
measure: EC50
measured: > 1 µM
--
compound structure: Cc1sc(C(=O)N2CCN(c3ncnc4[nH]ccc34)CC3(CC3)C2)cc1S(N)(=O)=O
measure: EC50
measured: < 0.1 µM
--
compound structure: O=C(c1cncnc1)N1CCN(c2ncnc3[nH]ccc23)CC2(CC2)C1
measure: EC50
measured: > 1 µM
--
compound structure: O=C(Cc1ccc(Cl)cc1)N1CCCN(c2ncnc3[nH]ccc23)CC12CC2
measure: EC50
measured: 0.1 to 1 µM
--
compound structure: O=C(Cc1cccs1)N1CCN(c2ncnc3[nH]ccc23)CC2(CC2)C1
measure: EC50
measured: < 0.1 µM

###

- target: JAK3 (Homo sapiens, UniProt P52333)
- Construct: All four purified enzymes contain only the catalytic domain; His (N)
- Sequence (P52333 822-1111 limits assumed): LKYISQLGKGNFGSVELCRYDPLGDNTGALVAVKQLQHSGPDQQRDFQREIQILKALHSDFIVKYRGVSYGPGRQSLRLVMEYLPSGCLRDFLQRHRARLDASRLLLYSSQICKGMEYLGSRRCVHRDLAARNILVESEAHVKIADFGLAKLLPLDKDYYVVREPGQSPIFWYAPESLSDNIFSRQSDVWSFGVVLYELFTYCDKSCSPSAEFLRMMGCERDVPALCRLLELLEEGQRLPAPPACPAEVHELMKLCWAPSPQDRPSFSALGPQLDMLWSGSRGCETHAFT
- method: JAK3 kinase assay (HTRF, inhibition of phosphorylation of a synthetic peptide)
- condition set: catalytic domain, His-tag; 2 μM ATP (Km); read-out: JAK3 kinase inhibitory activity (EC50)
measure: EC50

compound: O=C(Cc1ccc(-c2nn[nH]n2)cc1)N1CCN(c2ncnc3[nH]ccc23)CC2(CC2)C1 [Example 77]
measured: 100 to 1000 nM
//
compound: Cc1cc(C(=O)N2CCCN(c3ncnc4[nH]ccc34)CC23CC3)no1 [Example 141]
measured: 100 to 1000 nM
//
compound: O=C(c1ccncn1)N1CCN(c2ncnc3[nH]ccc23)CC2(CC2)C1 [Example 165]
measured: > 1000 nM
//
compound: O=C(c1cccc(Cl)c1)N1CCN(c2ncnc3[nH]ccc23)CC2(CC2)C1 [Example 186]
measured: > 1000 nM
//
compound: O=C(c1ccccn1)N1CCCN(c2ncnc3[nH]ccc23)CC12CC2 [Example 189]
measured: > 1000 nM
//
compound: Cn1cc(CC(=O)N2CCN(c3ncnc4[nH]ccc34)CC3(CC3)C2)cn1 [Example 253]
measured: > 1000 nM
//
compound: O=C(c1ccsn1)N1CCN(c2ncnc3[nH]ccc23)CC2(CC2)C1 [Example 200]
measured: 100 to 1000 nM
//
compound: N#CCCNS(=O)(=O)c1ccc(C(=O)N2CCN(c3ncnc4[nH]ccc34)CC3(CC3)C2)cc1 [Example 69]
measured: 100 to 1000 nM

###

- target: TYK2 (Homo sapiens, UniProt P29597)
- Construct: JAK1 (aa 850-1154) and TYK2 (aa 871-1187) are expressed with an N-terminally fused GST-tag; GST (N)
- Sequence (P29597 871-1187): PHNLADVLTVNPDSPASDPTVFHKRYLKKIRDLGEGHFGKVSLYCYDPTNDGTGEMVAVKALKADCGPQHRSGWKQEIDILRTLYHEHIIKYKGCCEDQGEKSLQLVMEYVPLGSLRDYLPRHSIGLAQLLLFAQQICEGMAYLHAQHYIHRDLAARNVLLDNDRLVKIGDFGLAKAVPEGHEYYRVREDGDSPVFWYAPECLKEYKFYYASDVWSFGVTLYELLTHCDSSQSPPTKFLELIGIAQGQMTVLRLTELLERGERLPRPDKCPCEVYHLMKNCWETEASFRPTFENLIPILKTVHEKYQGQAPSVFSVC
- method: TYK2 kinase assay (HTRF, inhibition of phosphorylation of a synthetic peptide)
- condition set: catalytic domain aa 871-1187, GST-tag; 13 μM ATP (Km); read-out: TYK2 kinase inhibitory activity (EC50)
pEC50: −log10 of the molar value.
measure: pEC50

compound: Cn1c(C(=O)N2CCN(c3ncnc4[nH]ccc34)CC3(CC3)C2)ccc1S(N)(=O)=O [Example 35]
measure: pEC50
measured: < 6.00
//
compound: N#CCOc1ccc(CC(=O)N2CCN(c3ncnc4[nH]ccc34)CC3(CC3)C2)cc1 [Example 16]
measure: pEC50
measured: < 6.00
//
compound: O=C(Cc1ccc(F)cc1)N1CCN(c2ncnc3[nH]ccc23)CC2(CC2)C1 [Example 158]
measure: pEC50
measured: 6.00 to 7.00
//
compound: N#Cc1ccc(C(=O)N2CCN(c3ncnc4[nH]ccc34)CC3(CC3)C2)cc1F [Example 42]
measure: pEC50
measured: < 6.00
//
compound: CCC1=NOC(C(=O)N2CCCN(c3ncnc4[nH]ccc34)CC23CC3)C1 (racemic) [Example 123]
measure: pEC50
measured: < 6.00
//
compound: NS(=O)(=O)c1ccc(-c2ccc(C(=O)N3CCN(c4ncnc5[nH]ccc45)CC4(CC4)C3)o2)cc1 [Example 65]
measure: pEC50
measured: 6.00 to 7.00
//
compound: NS(=O)(=O)c1ccc(C(=O)N2CCN(c3ncnc4[nH]ccc34)CC3(CC3)C2)cc1Cl [Example 32]
measure: pEC50
measured: < 6.00
//
compound: O=C(c1csnn1)N1CCCN(c2ncnc3[nH]ccc23)CC12CC2 [Example 142]
measure: pEC50
measured: 6.00 to 7.00
//
compound: N#Cc1cccc(CCC(=O)N2CCN(c3ncnc4[nH]ccc34)CC3(CC3)C2)c1 [Example 116]
measure: pEC50
measured: < 6.00
//
compound: N#Cc1cccc(CC(=O)N2CCCN(c3ncnc4[nH]ccc34)CC23CC3)c1 [Example 58]
measure: pEC50
measured: < 6.00
//
compound: NS(=O)(=O)c1ccc(/C=C/C(=O)N2CCN(c3ncnc4[nH]ccc34)CC3(CC3)C2)cc1 [Example 54]
measure: pEC50
measured: 6.00 to 7.00
//
compound: c1nc(N2CCNCC3(CC3)C2)c2cc[nH]c2n1 [Example 290]
measure: pEC50
measured: < 6.00
//
compound: N#Cc1c[nH]c(C(=O)N2CCCN(c3ncnc4[nH]ccc34)CC23CC3)c1 [Example 209]
measure: pEC50
measured: > 7.00
//
compound: O=C(Nc1ccccc1)N1CCCN(c2ncnc3[nH]ccc23)CC12CC2 [Example 90]
measure: pEC50
measured: < 6.00
//
compound: O=C(c1cnsn1)N1CCCN(c2ncnc3[nH]ccc23)CC12CC2 [Example 203]
measure: pEC50
measured: 6.00 to 7.00
//
compound: S=C(Nc1ccccc1)N1CCCN(c2ncnc3[nH]ccc23)CC12CC2 [Example 91]
measure: pEC50
measured: < 6.00
//
compound: CC1CN(c2ncnc3[nH]ccc23)CC2(CC2)CN1 (centres unmarked) [Example 293]
measure: pEC50
measured: < 6.00
